The reported measurements were obtained from PubChem BioAssay (NCI).

# Tested on: XF 498 CNS
# PROCEDURE_DETAILS: NCI tumour cell line growth inhibition, 48 h
Label t when TGI is at or above 30 µM; otherwise label f.

Exam item: decide whether the reported TGI for COc1ccc(CC(=O)NCCc2ccc(OC)c(OC)c2)cc1Br is at least 30 µM.
t

Exam item: decide whether the reported TGI for O=C1CCCC(=O)N1CCc1c[nH]c2ccccc12 is at least 30 µM.
t

Exam item: decide whether the reported TGI for CC(C)C(Sc1nc(-c2ccccc2)c(-c2ccccc2)[nH]1)C(=O)NN (stereo unspecified) is at least 30 µM.
t

Exam item: decide whether the reported TGI for CCCCCCCCCCCCCCCCOCC(CP(=O)([O-])OCC[n+]1ccccc1)OC (stereo unspecified) is at least 30 µM.
f

Exam item: decide whether the reported TGI for COc1ccc(S(=O)(=O)N/N=C/c2cc(I)cc([N+](=O)[O-])c2O)cc1OC is at least 30 µM.
t

Exam item: decide whether the reported TGI for CN1CC[C@]2(C)c3cc(O)ccc3CC3CCCC1C32C (stereo partly specified) is at least 30 µM.
t

Exam item: decide whether the reported TGI for C=C1C(=O)OC2C=C(CCC(C)=O)C(C)C(OC(C)=O)CC12 (stereo unspecified) is at least 30 µM.
f

Exam item: decide whether the reported TGI for O=C(c1ccccc1)[C@@H]1C[C@H](Sc2ccccc2)c2cc(Cl)ccc2N1 is at least 30 µM.
t

Exam item: decide whether the reported TGI for O=C(O)CCC(NC(=O)c1ccccc1)C(=O)O (stereo unspecified) is at least 30 µM.
t

Exam item: decide whether the reported TGI for N#CCCN(c1ccc(C=Nc2ccccc2Cl)cc1)S(=O)(=O)c1ccccc1 is at least 30 µM.
t

---

# Tested on: A549 NSCLC
# PROCEDURE_DETAILS: NCI tumour cell line growth inhibition, 48 h; in the data active means GI50 below about 0.43 µM; inactive means the rest
Mark one answer only. Choices: 1.0 = active, 0.0 = inactive

Recorded results for 10 molecules are shown here.
[[record]]
molecule = "CNC(=O)CC1NC(=O)c2csc(n2)-c2ccc(-c3nc(C4=NC(C(=O)N5CCCC5C(N)=O)CO4)cs3)nc2-c2csc(n2)-c2csc(n2)C(C(C)C)NC(=O)CNC(=O)c2csc(n2)C(C(C)C)NC(=O)c2nc1sc2C (configuration not stated)"
class_label = 0.0

[[record]]
molecule = "CNCCNc1c2c(c(NCCNC)c3[nH]ccc13)C(=O)c1ccccc1C2=O"
class_label = 1.0

[[record]]
molecule = "COc1ccc(NC(=O)COCCOCCNC[C@@H]2C(=O)O[C@H]3[C@H]2CC/C(COC(=O)OC/C2=C/CC[C@@]4(C)O[C@H]4[C@H]4OC(=O)[C@@H](CN(C)C)[C@@H]4CC2)=C\\CC[C@@]2(C)O[C@@H]32)c(O)c1C(N)=O"
class_label = 0.0

[[record]]
molecule = "COc1ccc(-n2cc(-c3cc(OC)c(OC)c(OC)c3)nc2SCc2ccccc2)cc1OC"
class_label = 0.0

[[record]]
molecule = "Cc1cc2[nH]c(=O)c3c4ccccc4cn3c2cc1C"
class_label = 0.0

[[record]]
molecule = "CC[C@@]1(OC(=O)CN)C(=O)OCc2c1cc1n(c2=O)Cc2cc3c(N)cccc3nc2-1"
class_label = 1.0

[[record]]
molecule = "COc1cc(/C=N/NC(=O)c2cnn3c2NC(c2ccccc2)C3)ccc1Oc1ccccc1 (configuration not stated)"
class_label = 0.0

[[record]]
molecule = "Cc1cc(=O)[nH]c2cc3c(c4c(n3Cc3ccc(Cl)cc3Cl)CC(C)(C)CC4=O)c(O)c12"
class_label = 0.0

[[record]]
molecule = "O=c1[nH]c(=O)c2cc(C3CC(O)C(CO)O3)ccc2[nH]1 (configuration not stated)"
class_label = 0.0

[[record]]
molecule = "C=C1C(=O)O[C@H]2[C@H]1CCC(/C=N/c1ncc(Br)cc1N)=C\\CC[C@@]1(C)O[C@@H]21"
class_label = 0.0


Could you check what this test reported for COc1cccc2c1C(=O)c1c(O)c3c(c(O)c1C2=O)C[C@@](O)(C(=O)CO)C[C@@H]3O[C@H]1C[C@H](N)[C@@H](O)[C@H](C)O1 ?
1.0

Could you check what this test reported for S=c1ssc(Oc2ccccc2)c1Cl ?
0.0

---

Here the recorded TGI is given for each entry.
# Tested on: OVCAR-4 ovarian
# PROCEDURE_DETAILS: NCI tumour cell line growth inhibition, 48 h

Use the examples below as a reference point.
[[record]]
compound = "COc1ccc(/C=C(\\C#N)n2nnc3ccccc32)cc1"
quantity_kind = "TGI"
data_value = "> 82.5 µM"

[[record]]
compound = "NC1CC(Cl)c2c(Cl)sc(Cl)c21 (configuration not stated)"
quantity_kind = "TGI"
data_value = "> 100 µM"

[[record]]
compound = "CC1=C(C)C1[N+](=O)[O-]"
quantity_kind = "TGI"
data_value = "> 100 µM"

[[record]]
compound = "CN1CCCOC(c2ccc([N+](=O)[O-])cc2)O1 (configuration not stated)"
quantity_kind = "TGI"
data_value = "> 100 µM"


Value lookup for TGI; key = Cc1ccc2nc(-c3ccccc3)c(N=O)n2c1
> 100 µM

Value lookup for TGI; key = C[N+]1(Cc2ccc(Cl)c(Cl)c2)CCCC1C1CCCN(Cc2ccc(Cl)c(Cl)c2)C1 (configuration not stated)
> 100 µM

---

Here the recorded TGI is given for each entry.
# Test system: MALME-3M melanoma
# PROCEDURE_DETAILS: NCI tumour cell line growth inhibition, 48 h
Numeric only. Scale: µM

Use the examples below as a reference point.
[[record]]
compound = "Cc1ccc([N+](=O)[O-])cc1NC(=O)c1cccc([N+](=O)[O-])c1O"
quantity_kind = "TGI"
output_unit = "µM"
data_value = 62.7

[[record]]
compound = "Nc1ccc(CCSSCCc2ccc(N)cc2)cc1"
quantity_kind = "TGI"
output_unit = "µM"
data_value = 41.6

[[record]]
compound = "OC(CNCC1CCCO1)Cn1c2ccc(Cl)cc2c2cc(Cl)ccc21 (stereo not given)"
quantity_kind = "TGI"
output_unit = "µM"
data_value = 3.94

[[record]]
compound = "N#CC1=C(N)Oc2c(sc3c(Br)cccc23)C1c1ccc(Br)cc1 (stereo not given)"
quantity_kind = "TGI"
output_unit = "µM"
data_value = 20.7


Value lookup for TGI; key = Cc1cc(Cc2cc(C)cc(C(C)(C)C)c2O)c(O)c(Cc2cc(C)cc(C(C)(C)C)c2O)c1
5.13

Value lookup for TGI; key = CN(C)CC1C(=O)O[C@H]2[C@H]1CC/C(COC(=O)c1cc3ccccc3[nH]1)=C\CC[C@@]1(C)O[C@@H]21 (stereo not given in full)
4.56

---

# System: CCRF-CEM leukemia
# PROCEDURE_DETAILS: NCI tumour cell line growth inhibition, 48 h
QUANTITY_KIND: TGI

[[record]]
molecule = "NCCN.NCCN.O=C([O-])CCl.O=C([O-])CCl.[Co+3].[O-][Cl+3]([O-])([O-])[O-]"
data_value = "> 100 µM"


Value lookup for TGI; key = CC1(C)C/C(=N/O)c2c(nc3ccc4ccccc4c3c2-c2ccc(Cl)cc2)C1
27.6 µM

Value lookup for TGI; key = O=P1(c2ccccc2)C(c2ccccc2)=CC=C1c1ccccc1
62.7 µM

Value lookup for TGI; key = CC(=O)N1C(NN(C)C)CCN1c1ccccc1 (stereo not given)
> 10 µM

Value lookup for TGI; key = c1ccc2c(c1)cc1c3[nH]c4ccccc4c3ccn21
> 10 µM

---

Here the recorded TGI is given for each entry.
# Tested on: HS 578T breast
# PROCEDURE_DETAILS: NCI tumour cell line growth inhibition, 48 h

[[record]]
compound = "COC(=O)C1(C(=O)OC)Cc2ccc(C)cc2C2=C1C(=O)c1ccccc1C2=O"
data_value = "> 100 µM"

[[record]]
compound = "CC1=NN(C(=O)CC(=O)Nc2ccc(C)cc2)C(=O)C1N=Nc1ccc(S(=O)(=O)c2ccc(N=NC3C(=O)N(C(=O)CC(=O)Nc4ccc(C)cc4)N=C3C)cc2)cc1 (stereo not drawn)"
data_value = "> 100 µM"


Now let's try a different one.
Value lookup for TGI; key = C=CC[C@@]1([C@H](C=C)COCc2ccc(OC)cc2)CC[C@]2(C)OC(C)(C)[C@@H](c3ccccc3)N2C1=S
> 100 µM

---

# Tested on: OVCAR-3 ovarian
# PROCEDURE_DETAILS: NCI tumour cell line growth inhibition, 48 h
QUANTITY_KIND: TGI

Use the examples below as a reference point.
[[record]]
molecule = "NC(=O)C1Cc2cc3c(cc21)OCO3 (configuration not stated)"
data_value = "> 100 µM"

[[record]]
molecule = "C=CCc1ccccc1CC1(OCC)OC(=O)c2ccccc21 (configuration not stated)"
data_value = "> 100 µM"

[[record]]
molecule = "CCN(CC)CCn1c2ccccc2c(=O)c2c(O)ccc(O)c21"
data_value = "47.6 µM"

[[record]]
molecule = "O=C(NNCc1ccco1)c1cc2ccccc2[nH]1"
data_value = "> 95 µM"

[[record]]
molecule = "COC(=O)[C@@H](NC(=O)N(CCC#N)CCCN(C(=O)N[C@H](Cc1ccccc1)C(=O)OC)c1ccccc1)C(C)C"
data_value = "> 100 µM"


Value lookup for TGI; key = CC(O)c1ccc[n+](Cc2ccccc2)c1 (configuration not stated)
> 400 µM

Value lookup for TGI; key = NCCN.NCCN.O=C([O-])CCl.O=C([O-])CCl.[Co+3].[O-][Cl+3]([O-])([O-])[O-]
> 100 µM
